Values compiled from patent US9540299B2.

Target: 3×Flag-TFEB (Homo sapiens)
Construct: expressed in transfected cells
Sequence (P19484 1-476): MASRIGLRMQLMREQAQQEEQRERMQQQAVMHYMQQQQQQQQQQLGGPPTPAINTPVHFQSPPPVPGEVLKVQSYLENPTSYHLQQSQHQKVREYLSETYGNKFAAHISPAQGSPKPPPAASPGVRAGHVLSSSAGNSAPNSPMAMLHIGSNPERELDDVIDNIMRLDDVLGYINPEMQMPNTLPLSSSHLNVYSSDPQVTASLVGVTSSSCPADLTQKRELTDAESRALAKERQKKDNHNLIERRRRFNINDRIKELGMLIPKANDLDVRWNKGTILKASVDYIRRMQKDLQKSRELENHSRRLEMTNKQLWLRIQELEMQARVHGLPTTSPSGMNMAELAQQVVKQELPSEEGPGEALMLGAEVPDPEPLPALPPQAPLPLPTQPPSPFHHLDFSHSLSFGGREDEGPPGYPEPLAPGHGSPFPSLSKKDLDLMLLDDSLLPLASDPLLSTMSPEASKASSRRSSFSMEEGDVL
Assay: Nuclear translocation of Flag-TFEB in Hela cells stably expressing 3×Flag-TFEB (immunostaining, western blot)
Assay type: cell-based
Conditions: analogs 1 μM, curcumin 10 μM, 12 h, Torin 1 1 μM, 2 h
Procedure: Cells were treated with curcumin (Cur, 10 μM), A2, B3 and C1 (1 μM) for 12 h. […] Data is quantified by ImageJ software and is presented as mean±SD of three replicates for each treatment conditions. At least 1000 cells are analyzed in each treatment group. *p<0.05 vs. the control (0.1% DMSO). FIG. 4C is a western blot showing the expression of endogenous TFEB. […] FIG. 4E is fluorescence images showing expression of 3×Flag-TFEB in Hela cells having treated with Cur (10 μM), A2, B3 and C1 (1 μM) for 12 h. […]
readout kind: nuclear translocation of Flag-TFEB

Consider the worked cases shown below.
[ask] Value wanted: nuclear translocation of Flag-TFEB (3×Flag-TFEB (Homo sapiens)) of entry COc1cc(/C=C/C(=O)CC(=O)/C=C/c2ccc(O)c(OC)c2)ccc1O [curcumin, Curcumin, reference compound]
[reply] no effects

[ask] Request: nuclear translocation of Flag-TFEB, test system 3×Flag-TFEB (Homo sapiens), entry O=C(/C=C/c1cccc(C(F)(F)F)c1)/C=C/c1cccc(C(F)(F)F)c1 [A2]
[reply] no effects

[ask] For 3×Flag-TFEB (Homo sapiens), provide nuclear translocation of Flag-TFEB of O=C(/C=C/c1ccccc1Cl)/C=C/c1ccccc1Cl [E2] please.
[reply] significantly promote

[ask] API: value(readout=nuclear translocation of Flag-TFEB, system=3×Flag-TFEB (Homo sapiens)) for record O=C(/C=C/c1ccccc1I)/C=C/c1ccccc1I [E4]
[reply] significantly promote

[ask] Checklist item: nuclear translocation of Flag-TFEB tested on 3×Flag-TFEB (Homo sapiens), entry O=C(/C=C/c1ccccc1Br)/C=C/c1ccccc1Br [E3] , value?
[reply] significantly promote

Continuing:
[ask] Query for 3×Flag-TFEB (Homo sapiens): what nuclear translocation of Flag-TFEB does the record show for CCC(=O)N1CCN(c2ccc(-n3c(=O)ccc4cnc5ccc(-c6cnc7ccccc7c6)cc5c43)cc2C(F)(F)F)CC1 [Torin 1, reference compound] ?
[reply] significantly promotes

[ask] Give nuclear translocation of Flag-TFEB (3×Flag-TFEB (Homo sapiens)) of the following molecule: O=C(/C=C/c1ccc(O)cc1)/C=C/c1ccc(O)cc1 [B3]
[reply] no effects

[ask] Lookup: nuclear translocation of Flag-TFEB / 3×Flag-TFEB (Homo sapiens) / COc1ccccc1/C=C/C(=O)/C=C/c1ccccc1OC [C1]
[reply] significantly promotes

====

Biological target: TFEB (Mus musculus)
Construct: the expression and distribution of endogenous TFEB in N2a cells treated with curcumin and its analogs are determined; endogenous in cells; host or cells: N2a cells
Sequence (Q9R210 whole entry): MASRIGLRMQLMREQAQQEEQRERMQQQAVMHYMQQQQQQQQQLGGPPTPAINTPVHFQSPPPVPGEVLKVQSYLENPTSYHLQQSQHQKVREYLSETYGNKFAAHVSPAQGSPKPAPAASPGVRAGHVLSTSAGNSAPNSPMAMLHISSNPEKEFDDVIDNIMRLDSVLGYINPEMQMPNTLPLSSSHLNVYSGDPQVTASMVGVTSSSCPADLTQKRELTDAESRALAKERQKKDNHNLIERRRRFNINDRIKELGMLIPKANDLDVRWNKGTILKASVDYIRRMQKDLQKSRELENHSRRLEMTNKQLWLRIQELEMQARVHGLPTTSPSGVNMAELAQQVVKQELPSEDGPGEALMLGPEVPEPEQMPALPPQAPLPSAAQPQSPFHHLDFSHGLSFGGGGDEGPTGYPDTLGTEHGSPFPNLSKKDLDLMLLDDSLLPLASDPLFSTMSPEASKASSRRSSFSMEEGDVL
Assay: Expression and distribution of endogenous TFEB in N2a cells (immunostaining, western blot)
Format: cell-based
Conditions: N2a cells, 12 h; curcumin 10 μM, analogs 1 μM
readout kind: nuclear translocation (distribution) of endogenous TFEB

[ask] Give the measured nuclear translocation (distribution) of endogenous TFEB of O=C(/C=C/c1ccc(O)cc1)/C=C/c1ccc(O)cc1 [B3] .
[reply] no effects

[ask] So what's the measured nuclear translocation (distribution) of endogenous TFEB for this one? COc1cc(/C=C/C(=O)CC(=O)/C=C/c2ccc(O)c(OC)c2)ccc1O [curcumin, Curcumin, reference compound]
[reply] no effects

[ask] Given the compound O=C(/C=C/c1cccc(C(F)(F)F)c1)/C=C/c1cccc(C(F)(F)F)c1 [A2] , what is its reported nuclear translocation (distribution) of endogenous TFEB?
[reply] no effects

====

Experiment: Acute toxicity by single-dose intravenous tail vein injection
Details: Sprague-Dawley, rat, in vivo, rats, read-out: medium lethal dose (LD50)
readout kind: LD50 (mg/kg)
Give just the numeric value; mg/kg need not be written.

[ask] Requested read-out: LD50. Entry: "COc1ccccc1/C=C/C(=O)/C=C/c1ccccc1OC"
[reply] 175
